ENDPOINT LABEL: melting point (°C)

Fc1cc(-c2cc(C(F)(F)F)n3ncc(-c4ccncc4)c3n2)ccc1C(F)(F)F | 262
Cc1cccc(-c2cc(C(F)(F)F)n3ncc(C#N)c3n2)c1 | 202
N#Cc1cnn2c(C(F)(F)F)cc(-c3ccc(C(F)(F)F)cc3)nc12 | 176
FC(F)(F)COc1cc(-c2cc(C(F)(F)F)n3cnc(-c4ccncc4)c3n2)ccc1C(F)(F)F | 233
FC(F)(F)COc1ccc(-c2cc(C(F)(F)F)n3ncc(-c4cccnc4)c3n2)cc1C(F)(F)F | 181
Cc1ccc(-c2cc(C(F)(F)F)n3cnc(-c4ccncc4)c3n2)cc1C(F)(F)F | 222
Cc1cc(-c2cnn3c(C(F)(F)F)cc(-c4cccc(C(F)(F)F)c4)nc23)ccn1 | 232
FC(F)(F)c1cc(-c2ccc(Cl)cc2)nc2c(-c3ccncc3)cnn12 | 274
N#Cc1ncn2c(C(F)(F)F)cc(-c3ccc(Cl)cc3)nc12 | 205
Fc1ccc(-c2cc(C(F)(F)F)n3cnc(-c4ccncc4)c3n2)cc1Cl | 266
CCOc1ccc(-c2cc(C(F)(F)F)n3ncc(-c4ccncc4)c3n2)cc1C(F)(F)F | 233
Cc1cc(-c2cnn3c(C(F)(F)F)cc(-c4ccc(C(F)(F)F)c(C(F)(F)F)c4)nc23)ccn1 | 223

----------
ENDPOINT LABEL: melting point (°C)

Cc1cc(-c2cnn3c(C(F)(F)F)cc(-c4ccc(OCC(F)(F)F)c(C(F)(F)F)c4)nc23)ccn1 | 210
N#Cc1cnn2c(C(F)(F)F)cc(-c3ccncc3)nc12 | 233
N#Cc1ncn2c(C(F)(F)F)cc(-c3ccccc3)nc12 | 202
FC(F)(F)c1cc(-c2ccc(Cl)c(Cl)c2)nc2c(-c3ccccn3)cnn12 | 188
